I'd appreciate it if you could supply MIC values for the items below.
# Test system: Pseudomonas aeruginosa
# PROCEDURE_SUMMARY: Antibacterial activity against Pseudomonas aeruginosa 19-5 assessed as inhibition of bacterial growth measured after 18 to 20 hrs by broth microdilution method
# Assay type: functional
# CONDITION_DESCRIPTION: time 18-20 hrs

Okay, here is my list. What is MIC for each of these?
1. C[C@@H]1NC(=O)[C@@H](N(C)C(=O)[C@H](CCN)NC(=O)c2cnc(-c3ccc(CSSC(C)(C)C)cc3)cc2Cl)c2ccc(OCCN)c(c2)-c2cc(ccc2OCCN)C[C@@H](C(=O)NCC#N)NC1=O.O=C(O)C(F)(F)F.O=C(O)C(F)(F)F.O=C(O)C(F)(F)F.O=C(O)C(F)(F)F
2. Cc1nc(C2=CCC3(CC2)CC3)ncc1C(=O)N[C@@H](CCN)C(=O)N(C)[C@@H]1C(=O)N[C@@H](C)C(=O)N[C@H](C(=O)NCC#N)Cc2ccc(OCCN)c(c2)-c2cc1ccc2OCCN.O=C(O)C(F)(F)F.O=C(O)C(F)(F)F.O=C(O)C(F)(F)F.O=C(O)C(F)(F)F
3. Cc1nc(-c2ccc(CSSC(C)(C)C)cc2)nc(C)c1C(=O)N[C@@H](CCN)C(=O)N(C)[C@@H]1C(=O)N[C@@H](C)C(=O)N[C@H](C(=O)NCC#N)Cc2ccc(OCCN)c(c2)-c2cc1ccc2OCCN.O=C(O)C(F)(F)F.O=C(O)C(F)(F)F.O=C(O)C(F)(F)F.O=C(O)C(F)(F)F
4. CCCCCSSc1ccc(-c2ncc(C(=O)N[C@@H](CCN)C(=O)N(C)[C@@H]3C(=O)N[C@@H](C)C(=O)N[C@H](C(=O)NCC#N)Cc4ccc(OCCN)c(c4)-c4cc3ccc4OCCN)c(C)n2)cc1.O=C(O)C(F)(F)F.O=C(O)C(F)(F)F.O=C(O)C(F)(F)F.O=C(O)C(F)(F)F
5. Cc1nc(-c2ccc(C(C)(C)C)cc2)ncc1C(=O)N[C@@H](CCN)C(=O)N(C)[C@@H]1C(=O)N[C@@H](C)C(=O)N[C@H](NC(=O)NCC#N)Cc2ccc(OCCN)c(c2)-c2cc1ccc2OCCN.O=C(O)C(F)(F)F.O=C(O)C(F)(F)F.O=C(O)C(F)(F)F.O=C(O)C(F)(F)F
6. Cc1nc(-c2ccc(C(C)(C)C)cc2)ncc1C(=O)N[C@@H](CCN)C(=O)N(C)[C@@H]1C(=O)N[C@@H](C)C(=O)N[C@H](C(=O)O)Cc2ccc(OCCN)c(c2)-c2cc1ccc2OCCN.O=C(O)C(F)(F)F.O=C(O)C(F)(F)F.O=C(O)C(F)(F)F.O=C(O)C(F)(F)F
7. CSSc1ccc(-c2ncc(C(=O)N[C@@H](CCN)C(=O)N(C)[C@@H]3C(=O)N[C@@H](C)C(=O)N[C@H](C(=O)NCC#N)Cc4ccc(OCCN)c(c4)-c4cc3ccc4OCCN)c(C)n2)cc1.O=C(O)C(F)(F)F.O=C(O)C(F)(F)F.O=C(O)C(F)(F)F.O=C(O)C(F)(F)F

Output:
1: 8 µg/mL; 2: > 64 µg/mL; 3: 4 µg/mL; 4: 4 µg/mL; 5: > 64 µg/mL; 6: > 64 µg/mL; 7: 16 µg/mL

###

# Test system: Klebsiella pneumoniae
# PROCEDURE_SUMMARY: Antibacterial activity against Klebsiella pneumoniae 15-1 assessed as inhibition of bacterial growth measured after 18 to 20 hrs by broth microdilution method
# Assay type: functional
# CONDITION_DESCRIPTION: time 18-20 hrs
I'd appreciate it if you could supply MIC values for the items below.

Solved cases below.
CSSc1ccc(-c2ncc(C(=O)N[C@@H](CCN)C(=O)N(C)[C@@H]3C(=O)N[C@@H](C)C(=O)N[C@H](C(=O)NCC#N)Cc4ccc(OCCN)c(c4)-c4cc3ccc4OCCN)c(C)n2)cc1.O=C(O)C(F)(F)F.O=C(O)C(F)(F)F.O=C(O)C(F)(F)F.O=C(O)C(F)(F)F: 0.5 mg/L
Cc1nc(-c2ccc(C(C)(C)C)cc2)ncc1CC(=O)N[C@@H](CCN)C(=O)N(C)[C@@H]1C(=O)N[C@@H](C)C(=O)N[C@H](C(=O)NCC#N)Cc2ccc(OCCN)c(c2)-c2cc1ccc2OCCN.O=C(O)C(F)(F)F.O=C(O)C(F)(F)F.O=C(O)C(F)(F)F.O=C(O)C(F)(F)F: > 64 mg/L
Cc1nc(-c2ccc(C(C)(C)C)cc2)ncc1C(=O)N[C@@H](CCN)C(=O)N(C)[C@@H]1C(=O)N[C@@H](C)C(=O)N[C@H](C(=O)NCS(=O)(=O)O)Cc2ccc(OCCN)c(c2)-c2cc1ccc2OCCN.Cl.Cl.Cl.Cl: 4 mg/L
Cc1nc(-c2ccc(C(C)(C)C)cc2)ncc1C(=O)N[C@@H](CCN)C(=O)N(C)[C@@H]1C(=O)N[C@@H](C)C(=O)N[C@H](C(=O)CC#N)Cc2ccc(OCCN)c(c2)-c2cc1ccc2OCCN.O=C(O)C(F)(F)F.O=C(O)C(F)(F)F.O=C(O)C(F)(F)F.O=C(O)C(F)(F)F: 16 mg/L
Cc1nc(C2=CCC3(CC2)CC3)ncc1C(=O)N[C@@H](CCN)C(=O)N(C)[C@@H]1C(=O)N[C@@H](C)C(=O)N[C@H](C(=O)NCC#N)Cc2ccc(OCCN)c(c2)-c2cc1ccc2OCCN.O=C(O)C(F)(F)F.O=C(O)C(F)(F)F.O=C(O)C(F)(F)F.O=C(O)C(F)(F)F: 0.25 mg/L

Okay, here is my list. What is MIC for each of these?
1. Cc1nc(-c2ccc([C@H](C)SSC(C)(C)C)cc2)ncc1C(=O)N[C@@H](CCN)C(=O)N(C)[C@@H]1C(=O)N[C@@H](C)C(=O)N[C@H](C(=O)NCC#N)Cc2ccc(OCCN)c(c2)-c2cc1ccc2OCCN.O=C(O)C(F)(F)F.O=C(O)C(F)(F)F.O=C(O)C(F)(F)F.O=C(O)C(F)(F)F
2. CCCCCSSc1ccc(-c2ncc(C(=O)N[C@@H](CCN)C(=O)N(C)[C@@H]3C(=O)N[C@@H](C)C(=O)N[C@H](C(=O)NCC#N)Cc4ccc(OCCN)c(c4)-c4cc3ccc4OCCN)c(C)n2)cc1.O=C(O)C(F)(F)F.O=C(O)C(F)(F)F.O=C(O)C(F)(F)F.O=C(O)C(F)(F)F
3. Cc1nc(-c2ccc(CSSCC(C)C)cc2)ncc1C(=O)N[C@@H](CCN)C(=O)N(C)[C@@H]1C(=O)N[C@@H](C)C(=O)N[C@H](C(=O)NCC#N)Cc2ccc(OCCN)c(c2)-c2cc1ccc2OCCN.O=C(O)C(F)(F)F.O=C(O)C(F)(F)F.O=C(O)C(F)(F)F.O=C(O)C(F)(F)F
4. Cc1nc(-c2ccc(CSSC(C)(C)C)cc2)ncc1C(=O)N[C@@H](CCN)C(=O)N(C)[C@@H]1C(=O)N[C@@H](C)C(=O)N[C@H](C(=O)O)Cc2ccc(OCCN)c(c2)-c2cc1ccc2OCCN.O=C(O)C(F)(F)F.O=C(O)C(F)(F)F.O=C(O)C(F)(F)F.O=C(O)C(F)(F)F
5. CSSC1(c2ccc(-c3ncc(C(=O)N[C@@H](CCN)C(=O)N(C)[C@@H]4C(=O)N[C@@H](C)C(=O)N[C@H](C(=O)NCC#N)Cc5ccc(OCCN)c(c5)-c5cc4ccc5OCCN)c(C)n3)cc2)CCC1.O=C(O)C(F)(F)F.O=C(O)C(F)(F)F.O=C(O)C(F)(F)F.O=C(O)C(F)(F)F
6. Cc1cc(-c2ccc(CSSC(C)(C)C)cc2)ncc1C(=O)N[C@@H](CCN)C(=O)N(C)[C@@H]1C(=O)N[C@@H](C)C(=O)N[C@H](C(=O)NCC#N)Cc2ccc(OCCN)c(c2)-c2cc1ccc2OCCN.O=C(O)C(F)(F)F.O=C(O)C(F)(F)F.O=C(O)C(F)(F)F.O=C(O)C(F)(F)F
7. CCSSCc1ccc(-c2ncc(C(=O)N[C@@H](CCN)C(=O)N(C)[C@@H]3C(=O)N[C@@H](C)C(=O)N[C@H](C(=O)NCC#N)Cc4ccc(OCCN)c(c4)-c4cc3ccc4OCCN)c(C)n2)cc1.O=C(O)C(F)(F)F.O=C(O)C(F)(F)F.O=C(O)C(F)(F)F.O=C(O)C(F)(F)F

Output:
1. 0.125 mg/L
2. 1 mg/L
3. ≤ 0.03 mg/L
4. ≤ 0.03 mg/L
5. 0.06 mg/L
6. 0.125 mg/L
7. 0.06 mg/L

###

# PROCEDURE_SUMMARY: MRT in Sprague-Dawley rat at 10 mg/kg, iv measured upto 24 hrs LC-MS/MS analysis
# Type: ADME, organism-based
# CONDITION_DESCRIPTION: in vivo
Lab note: compare MRT with 1 h, writing satisfied if less and not satisfied if equal or more.

Cc1nc(-c2ccc(CSSC(C)(C)C)cc2)ncc1C(=O)N[C@@H](CCN)C(=O)N(C)[C@@H]1C(=O)N[C@@H](C)C(=O)N[C@H](C(=O)NCC#N)Cc2ccc(OCCN)c(c2)-c2cc1ccc2OCCN: not satisfied
CCCCSSCc1ccc(-c2ncc(C(=O)N[C@@H](CCN)C(=O)N(C)[C@@H]3C(=O)N[C@@H](C)C(=O)N[C@H](C(=O)NCC#N)Cc4ccc(OCCN)c(c4)-c4cc3ccc4OCCN)c(C)n2)cc1: not satisfied
Cc1nc(-c2ccc(SSC(C)(C)C)cc2)ncc1C(=O)N[C@@H](CCN)C(=O)N(C)[C@@H]1C(=O)N[C@@H](C)C(=O)N[C@H](C(=O)NCC#N)Cc2ccc(OCCN)c(c2)-c2cc1ccc2OCCN: not satisfied
Cc1nc(-c2ccc(C(C)(C)C)cc2)ncc1C(=O)N[C@@H](CCN)C(=O)N(C)[C@@H]1C(=O)N[C@@H](C)C(=O)N[C@H](C(=O)NCC#N)Cc2ccc(OCCN)c(c2)-c2cc1ccc2OCCN.Cl.Cl.Cl.Cl: not satisfied

Task: Regarding `CCCSSCc1ccc(-c2ncc(C(=O)N[C@@H](CCN)C(=O)N(C)[C@@H]3C(=O)N[C@@H](C)C(=O)N[C@H](C(=O)NCC#N)Cc4ccc(OCCN)c(c4)-c4cc3ccc4OCCN)c(C)n2)cc1` , kindly confirm whether its MRT is beneath 1 h.
Output: satisfied
